Entry source: ChEMBL document CHEMBL2163330

# TESTED_TARGET: Polyunsaturated fatty acid 5-lipoxygenase (Homo sapiens)
# Sequence (P09917 whole entry): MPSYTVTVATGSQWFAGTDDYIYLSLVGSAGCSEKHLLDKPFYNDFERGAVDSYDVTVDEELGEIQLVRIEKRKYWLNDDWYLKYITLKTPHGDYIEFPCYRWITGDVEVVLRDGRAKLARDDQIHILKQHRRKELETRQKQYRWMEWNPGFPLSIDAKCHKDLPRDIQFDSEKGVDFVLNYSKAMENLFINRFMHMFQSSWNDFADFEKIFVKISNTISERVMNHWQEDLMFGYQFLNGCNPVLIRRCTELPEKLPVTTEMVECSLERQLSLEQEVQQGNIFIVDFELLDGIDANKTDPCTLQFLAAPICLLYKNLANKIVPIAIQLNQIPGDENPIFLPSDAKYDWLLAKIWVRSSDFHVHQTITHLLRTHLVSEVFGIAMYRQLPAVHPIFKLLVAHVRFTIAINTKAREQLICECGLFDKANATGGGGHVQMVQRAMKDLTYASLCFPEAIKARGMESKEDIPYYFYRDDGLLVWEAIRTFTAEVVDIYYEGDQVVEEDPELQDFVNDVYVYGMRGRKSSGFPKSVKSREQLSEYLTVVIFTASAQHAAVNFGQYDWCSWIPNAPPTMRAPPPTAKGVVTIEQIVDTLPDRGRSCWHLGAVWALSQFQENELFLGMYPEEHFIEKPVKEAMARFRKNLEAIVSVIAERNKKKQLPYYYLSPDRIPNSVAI
# EXPERIMENTAL_PROTOCOL: Inhibition of human 5-LOX in A23187-induced human whole blood assessed as reduction in LTB4 production pre-incubated for 20 mins before A23187 addition by enzyme immunoassay
pIC50: −log10 of the molar value.
MEASUREMENT_TYPE: pIC50

Query string: Report pIC50 for "Clc1ccc(-c2nn3c(Cc4ccccc4)nnc3s2)cc1Cl" tested on Polyunsaturated fatty acid 5-lipoxygenase (Homo sapiens).
Result string: < 4.00

Query string: Continue with "Cn1ncc(Cl)c1C(=O)N/N=C/c1ccccc1OC(=O)c1ccc([N+](=O)[O-])cc1"
Result string: < 4.00

Query string: Continue with "O=C(COC(=O)c1ccc(C(=O)c2ccc([N+](=O)[O-])cc2)cc1)c1ccccc1"
Result string: 4.32

Query string: Continue with "Cc1cccc(C2=N/C(=C\c3ccc(-c4cccc(Cl)c4)o3)C(=O)O2)c1"
Result string: < 4.00

Query string: Continue with "Cc1ccc(Sc2nc([N+](=O)[O-])nn2CC(=O)c2ccccc2)cc1"
Result string: 4.12

Query string: Continue with "O=C1c2ccc([N+](=O)[O-])cc2C(=O)N1CNc1ccc([N+](=O)[O-])cc1"
Result string: 4.42

Query string: Continue with "O=C(Oc1cccc2ccccc12)c1cc([N+](=O)[O-])cc([N+](=O)[O-])c1"
Result string: 5.07

Query string: Continue with c1ccc2c(c1)OCC(c1nn3c(Cn4nnc5ccccc54)nnc3s1)O2 (configuration not stated)
Result string: < 4.00

New cases:
Query string: Report pIC50 for "O=C(CSc1nnnn1-c1ccc(Cl)c(C(=O)O)c1)Nc1ccc(F)cc1" tested on Polyunsaturated fatty acid 5-lipoxygenase (Homo sapiens).
Result string: < 4.00

Query string: Continue with "CCOc1ccc(S(=O)(=O)N(CC(=O)N2CCc3ccccc3C2)c2ccccc2)cc1"
Result string: < 4.00

Query string: Continue with "O=c1/c(=C/c2cc(I)c(O)c([N+](=O)[O-])c2)sc2nc3ccccc3n12"
Result string: < 4.00

Query string: Continue with "COc1cc(Cl)cc(/C=C2/SC(=O)N(Cc3ccc(F)cc3)C2=O)c1O"
Result string: < 4.00
